Tested on: Saccharomyces cerevisiae
Assay: protein stability index of tFT-peptide fusion (C-terminal peptide) (PSI (0-1 scale)); higher = more stable (slower turnover)
Conditions: genetic background: doa10 deletion; temperature: 30 C
OBSERVABLE: protein stability index
Answer as a number with no unit attached.

The examples below pair each entry with its known result.
SEQUENCE: FFFCFFIFCFSL
protein stability index: 0.335
//
SEQUENCE: FLVFPLLIQFFL
protein stability index: 0.346

Return value of protein stability index for input WCLLGVPVRVVV , no commentary.
0.253

Return value of protein stability index for input RVSECVSVVGWM , no commentary.
0.619

* * *

Tested on: Saccharomyces cerevisiae
Test: protein stability index of tFT-peptide fusion (C-terminal peptide) (PSI (0-1 scale)); higher = more stable (slower turnover)
Conditions: genetic background: cdc34-1; temperature: 37 C
Decide using protein stability index: a value greater than or equal to 0.3 is 1.0, a smaller one is 0.0.

Take a look at these entries with their results.
SEQUENCE: NMRYRATIEACA
SYSTEM: Saccharomyces cerevisiae
ANSWER_LABEL: 0.0

SEQUENCE: LLLLASLFFRLA
SYSTEM: Saccharomyces cerevisiae
ANSWER_LABEL: 1.0

SEQUENCE: LDHGRVVWVVVS
SYSTEM: Saccharomyces cerevisiae
ANSWER_LABEL: 1.0

SEQUENCE: RVEPYDLARRVL
SYSTEM: Saccharomyces cerevisiae
ANSWER_LABEL: 1.0

SEQUENCE: FFAFLRFFIFYW
SYSTEM: Saccharomyces cerevisiae
ANSWER_LABEL: 1.0

SEQUENCE: WLGCVLIGWHVL
SYSTEM: Saccharomyces cerevisiae
ANSWER_LABEL: 1.0

Quick check, protein stability index >= 0.3? RHVFLRIKVLNL
1.0

Quick check, protein stability index >= 0.3? SGPTIRRRLFVH
1.0

Quick check, protein stability index >= 0.3? PVTAVYFVLYIW
0.0

Quick check, protein stability index >= 0.3? VLVWLRLRVGLR
0.0

Quick check, protein stability index >= 0.3? LSLFCFFLLVLF
0.0

Quick check, protein stability index >= 0.3? AKVFGLILVLLT
0.0

Quick check, protein stability index >= 0.3? YRFVWRWIPICA
0.0

* * *

Tested on: Saccharomyces cerevisiae
Assay: protein stability index of tFT-peptide fusion (C-terminal peptide) (PSI (0-1 scale)); higher = more stable (slower turnover)
Conditions: genetic background: das1 deletion; temperature: 37 C
OBSERVABLE: protein stability index
Answer as a number with no unit attached.

The examples below pair each entry with its known result.
SEQUENCE: HCSRMIIIFLFL
REPORTED_VALUE: 0.488

SEQUENCE: FLSVLPLFAFFA
REPORTED_VALUE: 0.68

SEQUENCE: PPPYPPPPARSL
REPORTED_VALUE: 0.688

SEQUENCE: VWGLWRLCVWGV
REPORTED_VALUE: 0.501

SEQUENCE: SSAFFFLLFSLA
REPORTED_VALUE: 0.511

SEQUENCE: RLFYRLSFVYFL
REPORTED_VALUE: 0.514

SEQUENCE: RVITRMLLMVIR
REPORTED_VALUE: 0.512

SEQUENCE: RPRRARLPNFLA
REPORTED_VALUE: 0.705

SEQUENCE: DRQMRCVHIHYL
REPORTED_VALUE: 0.697

SEQUENCE: RGSLLRWFLAAQ
REPORTED_VALUE: 0.706

Param request: protein stability index | system Saccharomyces cerevisiae | item SLIFLLVLILSL
0.493

Param request: protein stability index | system Saccharomyces cerevisiae | item RKKKRNKKKMIM
0.706

Param request: protein stability index | system Saccharomyces cerevisiae | item IYLLLFFFSFSA
0.51

Param request: protein stability index | system Saccharomyces cerevisiae | item QYRLMQKKIVNI
0.718

Param request: protein stability index | system Saccharomyces cerevisiae | item INGINHKIIKIV
0.72

Param request: protein stability index | system Saccharomyces cerevisiae | item VRINLLFVWFSR
0.491

* * *

Test system: Saccharomyces cerevisiae
Assay: protein stability index of tFT-peptide fusion (C-terminal peptide) (PSI (0-1 scale)); higher = more stable (slower turnover)
Conditions: genetic background: das1 deletion; temperature: 30 C
Entries and their protein stability index
Answer as a number with no unit attached.

SEQUENCE: LCHYLTPYMIIY [YOL106W C-terminal 12 aa]
protein stability index: 0.456
//
SEQUENCE: QFSFKAVTFLLI [YOR314W-A C-terminal 12 aa]
protein stability index: 0.629
//
SEQUENCE: REKAEAEAEKKK [RPL13A C-terminal 12 aa]
protein stability index: 0.704
//
SEQUENCE: WLPELALLCALD [LAS21 C-terminal 12 aa]
protein stability index: 0.614
//
SEQUENCE: LSVKWAVNTLMS [SRP101 C-terminal 12 aa]
protein stability index: 0.671
//
SEQUENCE: AWVPPTEDDSDE [DPH5 C-terminal 12 aa]
protein stability index: 0.698
//
SEQUENCE: QTVSTYTKVTPK [NCE103 C-terminal 12 aa]
protein stability index: 0.715
//
SEQUENCE: SANGYKRRRYGN [YHC1 C-terminal 12 aa]
protein stability index: 0.716
//
SEQUENCE: LNSIDPALISKY [AFT2 C-terminal 12 aa]
protein stability index: 0.744
//
SEQUENCE: LIRKMYYKNLKK [SSL2 C-terminal 12 aa]
protein stability index: 0.693

Return value of protein stability index for input RRRLTYHRYHPK [YML009C-A C-terminal 12 aa] , no commentary.
0.731

Return value of protein stability index for input KRLHQLDGIPHA [MEO1 C-terminal 12 aa] , no commentary.
0.703

Return value of protein stability index for input KEASRRFDAGKI [SOD2 C-terminal 12 aa] , no commentary.
0.678

Return value of protein stability index for input KHGVSAVKRYLR [CBP1 C-terminal 12 aa] , no commentary.
0.676

Return value of protein stability index for input VTTTFDKVHQDW [LEU1 C-terminal 12 aa] , no commentary.
0.715

Return value of protein stability index for input IDSLIENLRFQI [DBF4 C-terminal 12 aa] , no commentary.
0.741

Return value of protein stability index for input RSKLFNLSINNP [SPC72 C-terminal 12 aa] , no commentary.
0.7

Return value of protein stability index for input VFWKLKSRKLRI [MCH1 C-terminal 12 aa] , no commentary.
0.692

Return value of protein stability index for input VKDKVDAVYSSS [FAA1 C-terminal 12 aa] , no commentary.
0.692

* * *

Test system: Saccharomyces cerevisiae
Assay: protein stability index of tFT-peptide fusion (C-terminal peptide) (PSI (0-1 scale)); higher = more stable (slower turnover)
Conditions: genetic background: wild type; temperature: 30 C
Entries and their protein stability index
Answer as a number with no unit attached.

SEQUENCE: VWGLGWEFWWGV
protein stability index: 0.716

SEQUENCE: GVVGVWRGAGWR
protein stability index: 0.717

SEQUENCE: FFLPPPPPPPPL
protein stability index: 0.677

SEQUENCE: RLPVMFWFVCSF
protein stability index: 0.506

Return value of protein stability index for input YIGLPVSALTIF , no commentary.
0.574

* * *

Tested on: Saccharomyces cerevisiae
Assay: protein stability index of tFT-peptide fusion (C-terminal peptide) (PSI (0-1 scale)); higher = more stable (slower turnover)
Details: genetic background: wild type; temperature: 30 C
Entries and their protein stability index

SEQUENCE: PESTPRVHSNDY
protein stability index: 0.691
--
SEQUENCE: EVRLGKDKANRI
protein stability index: 0.691
--
SEQUENCE: LMYGCAQHRNRS
protein stability index: 0.61
--
SEQUENCE: GQPYTHASSSIG
protein stability index: 0.685
--
SEQUENCE: GRSGSVGGIRGR
protein stability index: 0.727
--
SEQUENCE: GPRIVVLKDVII
protein stability index: 0.64
--
SEQUENCE: GEISLSGRYRAV
protein stability index: 0.691
--
SEQUENCE: WRGIFPSRFCLS
protein stability index: 0.62

Return value of protein stability index for input GVRRSRAARVRK , no commentary.
0.777

Return value of protein stability index for input FLFWFLFFCSSR , no commentary.
0.49

* * *

System: Saccharomyces cerevisiae
Assay: protein stability index of tFT-peptide fusion (C-terminal peptide) (PSI (0-1 scale)); higher = more stable (slower turnover)
Conditions: genetic background: wild type; temperature: 30 C
OBSERVABLE: protein stability index
Answer as a number with no unit attached.

The examples below pair each entry with its known result.
SEQUENCE: TSNSPSPDLMEK [SMA2 C-terminal 12 aa]
protein stability index: 0.705

SEQUENCE: GDSDNVVKRLRK [URB1 C-terminal 12 aa]
protein stability index: 0.707

Param request: protein stability index | system Saccharomyces cerevisiae | item VIKQQNHQTTKI [HKR1 C-terminal 12 aa]
0.705

Param request: protein stability index | system Saccharomyces cerevisiae | item IFQSAISKAIRG [YBR109W-A C-terminal 12 aa]
0.682

Param request: protein stability index | system Saccharomyces cerevisiae | item DTFPRWEGIKSK [PAD1 C-terminal 12 aa]
0.697

Param request: protein stability index | system Saccharomyces cerevisiae | item YGLLKFHSVFES [YMR209C C-terminal 12 aa]
0.668

Param request: protein stability index | system Saccharomyces cerevisiae | item SETFATPTPNNR [SPC42 C-terminal 12 aa]
0.725

Param request: protein stability index | system Saccharomyces cerevisiae | item LVASNFFYAETK [TFS1 C-terminal 12 aa]
0.687

Param request: protein stability index | system Saccharomyces cerevisiae | item PSFSNSQWRIIF [YOR169C C-terminal 12 aa]
0.694

Param request: protein stability index | system Saccharomyces cerevisiae | item TEMATDASARMV [TPO4 C-terminal 12 aa]
0.682

Param request: protein stability index | system Saccharomyces cerevisiae | item DVEDVERVSKKI [CDC34 C-terminal 12 aa]
0.67
